Listed molecules paired with reported EC50
target-or-test-system: human DOR (Homo sapiens, UniProt P41143)
Construct: host or cells: CHO
assay-explanation: [35S]GTPγS binding, CHO-hDOR membranes
Type: biochemical
reported-endpoint: EC50 (nM)

* CN1CC[C@]23c4c5ccc(O)c4O[C@H]2C(=O)CC[C@@]3(OCCCc2ccccc2)[C@H]1C5 | 0.28
* CO[C@@]12CCC(=O)[C@@H]3Oc4c(O)ccc5c4[C@@]31CCN(C)[C@@H]2C5 [14-OMO, 14-O-methyloxymorphone, reference compound] | 43.8

---

target-or-test-system: UniProtKB P41144
reported-endpoint: Ki

- CN1CC[C@]23c4c5ccc(O)c4O[C@H]2C(=O)CC[C@@]3(OCCCc2ccccc2)[C@H]1C5: 0.3 nM

---

target-or-test-system: human KOR (Homo sapiens, UniProt P41145)
assay-explanation: biochemical
reported-endpoint: EC50 (nM)

* CO[C@@]12CCC(=O)[C@@H]3Oc4c(O)ccc5c4[C@@]31CCN(C)[C@@H]2C5 [14-OMO, 14-O-methyloxymorphone, reference compound] | 144
* CN1CC[C@]23c4c5ccc(O)c4O[C@H]2C(=O)CC[C@@]3(OCCCc2ccccc2)[C@H]1C5 [POMO, 14-O-phenylpropyloxymorphone] | 0.38

---

assay-explanation: Charcoal meal test (gastrointestinal transit)
protocol-conditions: male, CD-1, mouse, in vivo, sc
reported-endpoint: ED50 at 30 min (µmol/kg)

- CN1CC[C@]23c4c5ccc(O)c4O[C@H]2C(=O)CC[C@@]3(OCCCc2ccccc2)[C@H]1C5: 0.0017
- CO[C@@]12CCC(=O)[C@@H]3Oc4c(O)ccc5c4[C@@]31CCN(C)[C@@H]2C5 [14-OMO, 14-O-methyloxymorphone, reference compound]: 0.037
- CN1CC[C@]23c4c5ccc(O)c4O[C@H]2[C@@H](O)C=C[C@H]3[C@H]1C5 [Morphine, Morphine hydrocloride, reference compound]: 3.8

---

target-or-test-system: DOR (Rattus norvegicus, UniProt P33533)
Construct: Membranes were prepared from Sprague–Dawley rat brains or guinea-pig brains
assay-explanation: Competition binding, [3H][Ile5,6]deltorphin II, rat brain membranes
reported-endpoint: Ki

• CN1CC[C@]23c4c5ccc(O)c4O[C@H]2C(=O)CC[C@@]3(OCCCc2ccccc2)[C@H]1C5 [POMO, 14-O-phenylpropyloxymorphone] = 0.13 nM

---

target-or-test-system: human MOR (Homo sapiens, UniProt P35372)
assay-explanation: [35S]GTPγS binding, CHO-hMOR membranes
pEC50: −log10 of the molar value.
reported-endpoint: pEC50

- CO[C@@]12CCC(=O)[C@@H]3Oc4c(O)ccc5c4[C@@]31CCN(C)[C@@H]2C5 [14-OMO, 14-O-methyloxymorphone, reference compound]: 8.79
- CN1CC[C@]23c4c5ccc(O)c4O[C@H]2C(=O)CC[C@@]3(OCCCc2ccccc2)[C@H]1C5: 10.09

---

target-or-test-system: MOR (Rattus norvegicus, UniProt P33535)
Construct: Membranes were prepared from Sprague–Dawley rat brains or guinea-pig brains; from tissue; host or cells: Sprague-Dawley rat brain
assay-explanation: Competition binding, [3H]DAMGO, rat brain membranes
reported-endpoint: Ki

• CN1CC[C@]23c4c5ccc(O)c4O[C@H]2C(=O)CC[C@@]3(OCCCc2ccccc2)[C@H]1C5 [POMO, 14-O-phenylpropyloxymorphone] = 73 pM
